Values compiled from patent US20250179078A1.

Some molecules, each annotated with its measured IC50.
Target: NLRP3 (Homo sapiens)
Experiment: IL-1β Secretion Assay (NLRP3-dependent IL1β secretion in THP1 cells)
Details: PMA-differentiated THP-1 cells; compounds incubated 20 h; 2.5 μM Nigericin 3 h; HTRF IL-1β readout; read-out: IC50 IL-1β Inhibition
Method: Monocytic THP-1 cells (ATCC: TIB-202) were maintained in growth media consisting of RPMI 1640 medium (ThermoFisher, Cat #11875-085), 10% FBS (ThermoFisher) and 0.05 mM β-mercaptoethanol (ThermoFisher, Cat #21985-023), according to the provider's instructions. […] Compounds, once produced and prepared according to the present invention, can be assessed in variety of assays to characterize their activities. For example, NLRP3-dependent IL1β secretion was evaluated in THP1 cells. […]

| CHEMICAL_STRUCTURE | TEST_TARGET | QUANTITY | RESULT |
| --- | --- | --- | --- |
| O[C@H]1CCOC[C@@H]1Nc1nnc(-c2ccc(C(F)(F)F)cc2C(F)(F)F)c2cncn12 | NLRP3 (Homo sapiens) | IC50 | 10 to 100 nM |
| Cc1ccc(-c2nnc(N[C@H]3C[C@@H](CO)C3)n3cncc23)c(OC(F)(F)F)c1 | NLRP3 (Homo sapiens) | IC50 | 10 to 100 nM |
| COc1ccc(-c2nnc(N[C@H]3C[C@@](C)(O)C3)n3cccc23)c(CC(F)(F)F)c1 | NLRP3 (Homo sapiens) | IC50 | 1 to 10 nM |

Next up:
Incoming: Requested read-out: IC50. Entry: C[C@]1(O)C[C@@H](Nc2nnc(-c3ccc(C(F)(F)F)cc3C(F)(F)F)c3cncn23)C1
Outgoing: 1 to 10 nM

----------
molecular target: NLRP3 (Homo sapiens, UniProt Q96P20); assay: IL-1β Secretion Assay (NLRP3-dependent IL1β secretion in THP1 cells); conditions: PMA-differentiated THP-1 cells; compounds incubated 20 h; 2.5 μM Nigericin 3 h; HTRF IL-1β readout; read-out: IC50 IL-1β Inhibition
Sequence (Q96P20 whole entry): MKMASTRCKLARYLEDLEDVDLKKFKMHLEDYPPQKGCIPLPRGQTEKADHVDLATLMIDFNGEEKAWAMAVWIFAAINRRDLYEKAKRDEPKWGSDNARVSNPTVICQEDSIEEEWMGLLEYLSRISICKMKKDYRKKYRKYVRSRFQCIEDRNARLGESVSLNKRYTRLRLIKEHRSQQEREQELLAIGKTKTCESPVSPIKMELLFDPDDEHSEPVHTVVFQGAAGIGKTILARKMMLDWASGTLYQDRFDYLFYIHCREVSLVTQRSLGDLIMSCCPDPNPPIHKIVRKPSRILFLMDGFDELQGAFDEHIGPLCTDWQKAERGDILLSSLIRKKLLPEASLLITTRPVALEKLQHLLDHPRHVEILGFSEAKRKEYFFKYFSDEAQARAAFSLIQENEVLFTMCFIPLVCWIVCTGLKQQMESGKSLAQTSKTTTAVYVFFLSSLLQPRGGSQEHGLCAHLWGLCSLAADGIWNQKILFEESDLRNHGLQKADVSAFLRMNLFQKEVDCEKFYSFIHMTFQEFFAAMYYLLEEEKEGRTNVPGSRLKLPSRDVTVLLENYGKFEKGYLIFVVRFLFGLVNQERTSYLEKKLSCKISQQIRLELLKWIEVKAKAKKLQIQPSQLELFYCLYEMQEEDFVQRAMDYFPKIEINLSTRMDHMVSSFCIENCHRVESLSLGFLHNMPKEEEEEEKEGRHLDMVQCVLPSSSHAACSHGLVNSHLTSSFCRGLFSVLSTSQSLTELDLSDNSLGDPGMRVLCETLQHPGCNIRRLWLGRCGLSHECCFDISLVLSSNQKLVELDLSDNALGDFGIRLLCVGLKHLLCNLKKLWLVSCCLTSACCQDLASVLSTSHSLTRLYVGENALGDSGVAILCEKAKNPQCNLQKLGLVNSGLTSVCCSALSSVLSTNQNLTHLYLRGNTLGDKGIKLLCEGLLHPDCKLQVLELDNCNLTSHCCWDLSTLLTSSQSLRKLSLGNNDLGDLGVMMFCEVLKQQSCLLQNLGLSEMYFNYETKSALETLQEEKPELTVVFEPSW
Some molecules, each annotated with its measured IC50.

Would you please look over these solved cases?
| MOLECULE | IC50 |
| --- | --- |
| COc1ccc(-c2nnc(N[C@@H]3CCCN(CCO)C3)n3cncc23)c(CC(F)(F)F)c1 | < 1 nM |
| CN1CCC[C@@H](Nc2nnc(-c3ccc(C(F)(F)F)cc3C(F)(F)F)c3cncn23)C1 | < 1 nM |
| CN(C)C1CCCN(c2nnc(-c3ccc(C(F)(F)F)cc3C(F)(F)F)c3cccn23)C1 (stereo not shown) | 10 to 100 nM |

Incoming: API: value(readout= IC50, system= NLRP3 (Homo sapiens, UniProt Q96P20), query= C[C@]1(O)C[C@@H](Nc2nnc(-c3ccc(C(F)(F)F)cc3OC(F)(F)F)c3cncn23)C1 )
Outgoing: < 1 nM

Incoming: Repeat with O[C@@H]1CCCC[C@H]1Nc1nnc(-c2ccc(C(F)(F)F)cc2OC(F)(F)F)c2cncn12
Outgoing: < 1 nM

Incoming: Repeat with CCN1CCC[C@@H](Nc2nnc(-c3ccc(C(F)(F)F)cc3C(F)(F)F)c3c(F)ccn23)C1
Outgoing: 1 to 10 nM

Incoming: Repeat with C[C@]1(O)C[C@@H](Nc2nnc(-c3ccc(C(F)(F)F)cc3C(F)(F)F)c3c(F)ccn23)C1
Outgoing: 10 to 100 nM

Incoming: Repeat with COc1ccc(-c2nnc(N[C@H]3C[C@@](C)(CO)C3)n3cncc23)c(OC(F)(F)F)c1
Outgoing: 10 to 100 nM

Incoming: Repeat with Cc1ccc(-c2nnc(N[C@@H]3CCOC[C@H]3O)n3cncc23)c(CC(F)(F)F)c1
Outgoing: 10 to 100 nM

Incoming: Repeat with C[C@]1(O)C[C@@H](Nc2nnc(-c3ccc(Br)cc3C(F)(F)F)c3cncn23)C1
Outgoing: 1 to 10 nM

----------
Some compounds, each annotated with its measured IC50.
biological target: NLRP3 (Homo sapiens, UniProt Q96P20); test: IL-1β Secretion Assay (NLRP3-dependent IL1β secretion in THP1 cells); settings: PMA-differentiated THP-1 cells; compounds incubated 20 h; 2.5 μM Nigericin 3 h; HTRF IL-1β readout; read-out: IC50 IL-1β Inhibition

| COMPOUND | IC50 |
| --- | --- |
| Cc1ccc(-c2nnc(N[C@@H]3CCCC[C@H]3O)n3cccc23)c(CC(F)(F)F)c1 | 1 to 10 nM |
| O[C@@H]1COCC[C@H]1Nc1nnc(-c2ccc(C(F)(F)F)cc2C(F)(F)F)c2cncn12 | 1 to 10 nM |
| COc1ccc(-c2nnc(N[C@H]3C[C@](C)(CO)C3)n3cncc23)c(CC(F)(F)F)c1 | 10 to 100 nM |
| C[C@]1(O)CCCC[C@@H]1Nc1nnc(-c2ccc(C(F)(F)F)cc2CC(F)(F)F)c2cncn12 (racemic) | 1 to 10 nM |
| CCN1CCC[C@@H](Nc2nnc(-c3ccc(Cl)cc3Cl)c3cc(C)nn23)C1 | 1 to 10 nM |

Incoming: Requested read-out: IC50. Entry: Cc1ccc(-c2nnc(N[C@@H]3CCCN(C)C3)n3nc(C)cc23)c(C(F)F)c1
Outgoing: 10 to 100 nM

Incoming: Repeat with CN1CCC[C@@H](Nc2nnc(-c3ccc(C(F)(F)F)cc3OC(F)(F)F)c3cncn23)C1
Outgoing: < 1 nM

Incoming: Repeat with CC1(CO)CC(Nc2nnc(-c3ccc(C(F)(F)F)cc3OC(F)(F)F)c3cncn23)C1 (stereo not shown)
Outgoing: 10 to 100 nM

Incoming: Repeat with COc1ccc(-c2nnc(N[C@@H]3CCC[C@H](O)C3)n3cncc23)c(CC(F)(F)F)c1
Outgoing: 1 to 10 nM

Incoming: Repeat with COCC1CC(Nc2nnc(-c3ccc(C(F)(F)F)cc3OC(F)(F)F)c3cncn23)C1 (stereo not shown)
Outgoing: 10 to 100 nM

----------
biological target: NLRP3 (Homo sapiens); assay: IL-1β Secretion Assay (NLRP3-dependent IL1β secretion in THP1 cells); settings: PMA-differentiated THP-1 cells; compounds incubated 20 h; 2.5 μM Nigericin 3 h; HTRF IL-1β readout; read-out: IC50 IL-1β Inhibition
QUANTITY: IC50

Would you please look over these solved cases?
| MOLECULE | IC50 |
| --- | --- |
| COc1ccc(-c2nnc(NC(C)c3ccccc3)n3cncc23)c(OC(F)(F)F)c1 (centres unmarked) | ≥ 0.3 µM |
| COc1ccc(-c2nnc(N[C@H]3C[C@@](C)(O)C3)n3cncc23)c(C(F)(F)C(F)(F)F)c1 | 0.1 to 0.3 µM |
| Cc1cc2c(-c3ccc(C(F)(F)F)cc3C(F)(F)F)nnc(N[C@H]3CCCC[C@@H]3O)n2c1 | 0.01 to 0.1 µM |
| O[C@@H]1COCC[C@H]1Nc1nnc(-c2ccc(C(F)(F)F)cc2CC(F)(F)F)c2cccn12 | 0.001 to 0.01 µM |
| C[C@H](O)CNc1nnc(-c2ccc(C(F)(F)F)cc2OC(F)F)c2c(F)ccn12 | 0.01 to 0.1 µM |
| CN1C[C@H](F)C[C@@H](Nc2nnc(-c3ccc(C(F)(F)F)cc3C(F)(F)F)c3cncn23)C1 | 0.001 to 0.01 µM |
| COc1ccc(-c2nnc(NC3CC(C(C)(C)O)C3)n3cncc23)c(CC(F)(F)F)c1 (centres unmarked) | 0.01 to 0.1 µM |

Incoming: Requested read-out: IC50. Entry: COc1ccc(-c2nnc(NCc3cccc(O)c3)n3cncc23)c(OC(F)(F)F)c1
Outgoing: 0.001 to 0.01 µM

----------
target: UniProtKB Q96P20; assay: IL-1β Secretion Assay (NLRP3-dependent IL1β secretion in THP1 cells); conditions: PMA-differentiated THP-1 cells; compounds incubated 20 h; 2.5 μM Nigericin 3 h; HTRF IL-1β readout; read-out: IC50 IL-1β Inhibition
QUANTITY: IC50

Would you please look over these solved cases?
| COMPOUND | QUANTITY | RESULT |
| --- | --- | --- |
| C[C@]1(O)C[C@@H](Nc2nnc(-c3ccc(OC(F)F)cc3OC(F)(F)F)c3cncn23)C1 | IC50 | < 1 nM |
| Cc1ccc(-c2nnc(N[C@H]3C[C@@](C)(O)C3)n3cncc23)c(OC(F)F)c1 | IC50 | 10 to 100 nM |
| COc1ccc(-c2nnc(NC34CC(CO)(C3)C4)n3cccc23)c(OC(F)(F)F)c1 | IC50 | 10 to 100 nM |
| CN1CCC[C@@H](Nc2nnc(-c3ccc(C4CC4)cc3OC(F)(F)F)c3cccn23)C1 | IC50 | < 1 nM |
| COc1ccc(-c2nnc(NC(C)c3cccnc3)n3cncc23)c(OC(F)(F)F)c1 (single isomer, unassigned) [Compound 308] | IC50 | 100 to 300 nM |

Incoming: Requested read-out: IC50. Entry: C[C@]1(O)C[C@@H](Nc2nnc(-c3ccc(C(F)(F)F)cc3OC(F)F)c3cncn23)C1
Outgoing: 1 to 10 nM

Incoming: Repeat with C[C@]1(O)C[C@@H](Nc2nnc(-c3ccc(C4CC4)cc3CC(F)(F)F)c3cncn23)C1
Outgoing: < 1 nM
